Ratio IC50: recorded values
- protocolDescription: Phototoxicity ratio of IC50 for cytotoxicity against human HeLa cells assessed as reduction in cell viability in dark to IC50 for phototoxicity against human HeLa cells upon LED light irradiation
- Type: toxicity, cell-based
Please state the value as a number alone, without comment.

Previously resolved entries follow.
>>> measuredvalue("CCCCCCN1/C(=C/C2=C(N(Cc3ccccn3)Cc3ccccn3)C(=C/C3=[N+](CCCCCC)c4ccc5ccccc5c4C3(C)C)/C2=O)C(C)(C)c2c1ccc1ccccc21.[I-]")
1.5
>>> measuredvalue("CCCCCCN1/C(=C/C2=C(NCc3ccccn3)C(=C/C3=[N+](CCCCCC)c4ccc5ccccc5c4C3(C)C)/C2=O)C(C)(C)c2c1ccc1ccccc21.[I-]")
1.9

INPUT: Form field: reported Ratio IC50 of CCN1/C(=C/C2=C(NCc3ccccn3)C(=C/C3=[N+](CC)c4ccc5ccccc5c4C3(C)C)/C2=O)C(C)(C)c2c1ccc1ccccc21.[I-]
OUTPUT: 9.1

INPUT: Form field: reported Ratio IC50 of CCN1/C(=C/C2=C(N(Cc3ccccn3)Cc3ccccn3)C(=C/C3=[N+](CC)c4ccc5ccccc5c4C3(C)C)/C2=O)C(C)(C)c2c1ccc1ccccc21.[I-]
OUTPUT: 4

* * *

- protocolDescription: Dark toxicity against human MCF7 cells assessed as reduction in cell viability incubated for 24 hrs by MTT assay
- Format: cell-based
observable: IC50 at 24 h (nM)
Give a bare numeral; the unit nM is implied.

>>> measuredvalue("CCCCCCN1/C(=C/C2=C(N(Cc3ccccn3)Cc3ccccn3)C(=C/C3=[N+](CCCCCC)c4ccc5ccccc5c4C3(C)C)/C2=O)C(C)(C)c2c1ccc1ccccc21.[I-]")
1520
>>> measuredvalue("CCCCCCN1/C(=C/C2=C(NCc3ccccn3)C(=C/C3=[N+](CCCCCC)c4ccc5ccccc5c4C3(C)C)/C2=O)C(C)(C)c2c1ccc1ccccc21.[I-]")
3100
>>> measuredvalue("CCN1/C(=C/C2=C(N(Cc3ccccn3)Cc3ccccn3)C(=C/C3=[N+](CC)c4ccc5ccccc5c4C3(C)C)/C2=O)C(C)(C)c2c1ccc1ccccc21.[I-]")
534

Now let's try a different one.
INPUT: Form field: reported IC50 at 24 h of CCN1/C(=C/C2=C(NCc3ccccn3)C(=C/C3=[N+](CC)c4ccc5ccccc5c4C3(C)C)/C2=O)C(C)(C)c2c1ccc1ccccc21.[I-]
OUTPUT: 1610

* * *

IC50 at 24 h: recorded values
- protocolDescription: Phototoxicity against human NHDF cells assessed as reduction in cell viability preincubated for 24 hrs followed by 7 mins of LED light irradiation by MTT assay
- Type: toxicity, cell-based
Give a bare numeral; the unit nM is implied.

Previously resolved entries follow.
>>> measuredvalue("CCN1/C(=C/C2=C(N(Cc3ccccn3)Cc3ccccn3)C(=C/C3=[N+](CC)c4ccc5ccccc5c4C3(C)C)/C2=O)C(C)(C)c2c1ccc1ccccc21.[I-]")
184
>>> measuredvalue("CCCCCCN1/C(=C/C2=C(N(Cc3ccccn3)Cc3ccccn3)C(=C/C3=[N+](CCCCCC)c4ccc5ccccc5c4C3(C)C)/C2=O)C(C)(C)c2c1ccc1ccccc21.[I-]")
695

INPUT: Form field: reported IC50 at 24 h of CCN1/C(=C/C2=C([O-])C(=C/C3=[N+](CC)c4ccc5ccccc5c4C3(C)C)/C2=O)C(C)(C)c2c1ccc1ccccc21
OUTPUT: 222

INPUT: Form field: reported IC50 at 24 h of CCN1/C(=C/C2=C(NCc3ccccn3)C(=C/C3=[N+](CC)c4ccc5ccccc5c4C3(C)C)/C2=O)C(C)(C)c2c1ccc1ccccc21.[I-]
OUTPUT: 263

INPUT: Form field: reported IC50 at 24 h of CCCCCCN1/C(=C/C2=C(NCc3ccccn3)C(=C/C3=[N+](CCCCCC)c4ccc5ccccc5c4C3(C)C)/C2=O)C(C)(C)c2c1ccc1ccccc21.[I-]
OUTPUT: 1280

* * *

- protocolDescription: Phototoxicity ratio of IC50 for cytotoxicity against human PC-3 cells assessed as reduction in cell viability in dark to IC50 for phototoxicity against human PC-3 cells upon LED light irradiation
- Assay type: toxicity, cell-based
observable: Ratio IC50
Please state the value as a number alone, without comment.

Previously resolved entries follow.
>>> measuredvalue("CCCCCCN1/C(=C/C2=C(NCc3ccccn3)C(=C/C3=[N+](CCCCCC)c4ccc5ccccc5c4C3(C)C)/C2=O)C(C)(C)c2c1ccc1ccccc21.[I-]")
1.3
>>> measuredvalue("CCCCCCN1/C(=C/C2=C(N(Cc3ccccn3)Cc3ccccn3)C(=C/C3=[N+](CCCCCC)c4ccc5ccccc5c4C3(C)C)/C2=O)C(C)(C)c2c1ccc1ccccc21.[I-]")
1.1
>>> measuredvalue("CCN1/C(=C/C2=C(NCc3ccccn3)C(=C/C3=[N+](CC)c4ccc5ccccc5c4C3(C)C)/C2=O)C(C)(C)c2c1ccc1ccccc21.[I-]")
23.8

Now let's try a different one.
INPUT: Form field: reported Ratio IC50 of CCN1/C(=C/C2=C(N(Cc3ccccn3)Cc3ccccn3)C(=C/C3=[N+](CC)c4ccc5ccccc5c4C3(C)C)/C2=O)C(C)(C)c2c1ccc1ccccc21.[I-]
OUTPUT: 2.7

* * *

- protocolDescription: Selectivity ratio of IC50 for phototoxicity against human NHDF cells upon LED light irradiation to IC50 for phototoxicity against human HeLa cells upon LED light irradiation
- Assay type: toxicity, cell-based
- statedConditions: NHDF cells versus HeLa cells, read-out: Ratio IC50
observable: selectivity ratio
Please state the value as a number alone, without comment.

Previously resolved entries follow.
>>> measuredvalue("CCN1/C(=C/C2=C(N(Cc3ccccn3)Cc3ccccn3)C(=C/C3=[N+](CC)c4ccc5ccccc5c4C3(C)C)/C2=O)C(C)(C)c2c1ccc1ccccc21.[I-]")
1.63
>>> measuredvalue("CCCCCCN1/C(=C/C2=C(NCc3ccccn3)C(=C/C3=[N+](CCCCCC)c4ccc5ccccc5c4C3(C)C)/C2=O)C(C)(C)c2c1ccc1ccccc21.[I-]")
0.49
>>> measuredvalue("CCN1/C(=C/C2=C(NCc3ccccn3)C(=C/C3=[N+](CC)c4ccc5ccccc5c4C3(C)C)/C2=O)C(C)(C)c2c1ccc1ccccc21.[I-]")
1.1
>>> measuredvalue("CCCCCCN1/C(=C/C2=C(N(Cc3ccccn3)Cc3ccccn3)C(=C/C3=[N+](CCCCCC)c4ccc5ccccc5c4C3(C)C)/C2=O)C(C)(C)c2c1ccc1ccccc21.[I-]")
0.59

INPUT: Form field: reported selectivity ratio of CCN1/C(=C/C2=C([O-])C(=C/C3=[N+](CC)c4ccc5ccccc5c4C3(C)C)/C2=O)C(C)(C)c2c1ccc1ccccc21
OUTPUT: 0.91

* * *

Kb: recorded values
- subjectOfTest: Albumin (Homo sapiens, UniProt P02768)
- Sequence (P02768 whole entry): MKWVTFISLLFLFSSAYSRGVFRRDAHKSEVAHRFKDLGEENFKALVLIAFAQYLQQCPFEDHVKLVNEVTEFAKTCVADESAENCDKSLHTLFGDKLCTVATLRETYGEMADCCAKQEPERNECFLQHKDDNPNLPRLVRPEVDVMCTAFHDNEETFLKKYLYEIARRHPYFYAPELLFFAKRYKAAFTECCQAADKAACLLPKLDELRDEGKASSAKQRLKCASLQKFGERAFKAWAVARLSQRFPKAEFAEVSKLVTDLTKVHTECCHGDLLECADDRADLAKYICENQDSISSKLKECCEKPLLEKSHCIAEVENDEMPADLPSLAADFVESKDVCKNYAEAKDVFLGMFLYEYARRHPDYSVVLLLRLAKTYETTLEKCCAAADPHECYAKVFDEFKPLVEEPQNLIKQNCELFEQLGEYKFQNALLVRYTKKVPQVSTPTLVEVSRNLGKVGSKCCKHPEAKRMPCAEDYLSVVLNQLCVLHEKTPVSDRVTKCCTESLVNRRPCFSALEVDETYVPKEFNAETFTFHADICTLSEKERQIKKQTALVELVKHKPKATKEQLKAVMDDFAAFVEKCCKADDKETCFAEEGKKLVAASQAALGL
- protocolDescription: Binding affinity to human serum albumin assessed as binding constant by fluorescence based assay

Previously resolved entries follow.
>>> measuredvalue("CCN1/C(=C/C2=C(N(Cc3ccccn3)Cc3ccccn3)C(=C/C3=[N+](CC)c4ccc5ccccc5c4C3(C)C)/C2=O)C(C)(C)c2c1ccc1ccccc21.[I-]")
"5.92 10^5/M"
>>> measuredvalue("CCCCCCN1/C(=C/C2=C(NCc3ccccn3)C(=C/C3=[N+](CCCCCC)c4ccc5ccccc5c4C3(C)C)/C2=O)C(C)(C)c2c1ccc1ccccc21.[I-]")
"1.64 10^5/M"
>>> measuredvalue("CCCCCCN1/C(=C/C2=C(N(Cc3ccccn3)Cc3ccccn3)C(=C/C3=[N+](CCCCCC)c4ccc5ccccc5c4C3(C)C)/C2=O)C(C)(C)c2c1ccc1ccccc21.[I-]")
"7.68 10^5/M"
>>> measuredvalue("CCN1/C(=C/C2=C([O-])C(=C/C3=[N+](CC)c4ccc5ccccc5c4C3(C)C)/C2=O)C(C)(C)c2c1ccc1ccccc21")
"2.01 10^5/M"

INPUT: Form field: reported Kb of CCN1/C(=C/C2=C(NCc3ccccn3)C(=C/C3=[N+](CC)c4ccc5ccccc5c4C3(C)C)/C2=O)C(C)(C)c2c1ccc1ccccc21.[I-]
OUTPUT: 6.93 10^5/M

* * *

- protocolDescription: Selectivity ratio of IC50 for phototoxicity against human NHDF cells upon LED light irradiation to IC50 for phototoxicity against human MCF7 cells upon LED light irradiation
- Type: toxicity, cell-based
- statedConditions: NHDF cells versus MCF7 cells, read-out: Ratio IC50
observable: selectivity ratio
Please state the value as a number alone, without comment.

Previously resolved entries follow.
>>> measuredvalue("CCN1/C(=C/C2=C([O-])C(=C/C3=[N+](CC)c4ccc5ccccc5c4C3(C)C)/C2=O)C(C)(C)c2c1ccc1ccccc21")
0.96
>>> measuredvalue("CCN1/C(=C/C2=C(N(Cc3ccccn3)Cc3ccccn3)C(=C/C3=[N+](CC)c4ccc5ccccc5c4C3(C)C)/C2=O)C(C)(C)c2c1ccc1ccccc21.[I-]")
1.23
>>> measuredvalue("CCCCCCN1/C(=C/C2=C(N(Cc3ccccn3)Cc3ccccn3)C(=C/C3=[N+](CCCCCC)c4ccc5ccccc5c4C3(C)C)/C2=O)C(C)(C)c2c1ccc1ccccc21.[I-]")
0.59
>>> measuredvalue("CCN1/C(=C/C2=C(NCc3ccccn3)C(=C/C3=[N+](CC)c4ccc5ccccc5c4C3(C)C)/C2=O)C(C)(C)c2c1ccc1ccccc21.[I-]")
1.59

INPUT: Form field: reported selectivity ratio of CCCCCCN1/C(=C/C2=C(NCc3ccccn3)C(=C/C3=[N+](CCCCCC)c4ccc5ccccc5c4C3(C)C)/C2=O)C(C)(C)c2c1ccc1ccccc21.[I-]
OUTPUT: 0.56
